experiment: Phase 1 study of normal healthy human subjects, 45 mg Radiprodil (30% Formulation) fed and fasted; format: in vivo; conditions: human, in vivo, oral, Fasted, read-out: AUCinf Geometric LSM

Molecule: O=C(Nc1ccc2[nH]c(=O)oc2c1)C(=O)N1CCC(Cc2ccc(F)cc2)CC1 [Radiprodil]
AUC(0-inf) / ng·h/mL: 1890

----------
assay: in vivo; settings: rat
Endpoint Label: AUC(0-t) (ng·h/mL)

Compound Structure: O=C(Nc1ccc2[nH]c(=O)oc2c1)C(=O)N1CCC(Cc2ccc(F)cc2)CC1
Unit String: ng·h/mL
Observed Result: 9560

----------
assay: Phase 1 study of normal healthy human subjects, 45 mg Radiprodil (30% Formulation) fed and fasted; assay type: in vivo; conditions: human, in vivo, oral, Fed, read-out: AUCinf Geometric LSM

Compound Structure: O=C(Nc1ccc2[nH]c(=O)oc2c1)C(=O)N1CCC(Cc2ccc(F)cc2)CC1
Unit String: ng·h/mL
AUC(0-inf): 2810

----------
assay: Phase 1 study of normal healthy human subjects, 45 mg Radiprodil (30% Formulation) fed and fasted; type: in vivo; conditions: human, in vivo, oral, Fed, read-out: AUClast Geometric LSM
Endpoint Label: AUC(0-t) (ng·h/mL)

Compound: O=C(Nc1ccc2[nH]c(=O)oc2c1)C(=O)N1CCC(Cc2ccc(F)cc2)CC1 [Radiprodil]
Unit String: ng·h/mL
Observed Result: 2770

----------
test: in vivo; details: rat

Compound Structure: O=C(Nc1ccc2[nH]c(=O)oc2c1)C(=O)N1CCC(Cc2ccc(F)cc2)CC1
AUC [ng·h/mL]: 9550

----------
assay: in vivo; conditions: rat

Compound Structure: O=C(Nc1ccc2[nH]c(=O)oc2c1)C(=O)N1CCC(Cc2ccc(F)cc2)CC1
NOAEL at 4 weeks, mg/kg/day: 100

----------
assay: in vivo; settings: rat
Endpoint Label: Cmax

Compound: O=C(Nc1ccc2[nH]c(=O)oc2c1)C(=O)N1CCC(Cc2ccc(F)cc2)CC1 [Radiprodil]
Observed Result: 1400 ng/mL

----------
assay: in vivo; settings: dog
Endpoint Label: NOAEL at 13 weeks (mg/kg/day)

Compound Structure: O=C(Nc1ccc2[nH]c(=O)oc2c1)C(=O)N1CCC(Cc2ccc(F)cc2)CC1
Endpoint Label: NOAEL at 13 weeks
Unit String: mg/kg/day
Observed Result: 1.5

----------
test: in vivo; details: dog, 1.5 mg/kg/day
Endpoint Label: AUC(0-t) (µg·h/mL)

Molecule: O=C(Nc1ccc2[nH]c(=O)oc2c1)C(=O)N1CCC(Cc2ccc(F)cc2)CC1 [Radiprodil]
Observed Result: 3.75

----------
assay: in vivo; conditions: dog, 1.5 mg/kg/day
Endpoint Label: Cmax (ng/mL)

Molecule: O=C(Nc1ccc2[nH]c(=O)oc2c1)C(=O)N1CCC(Cc2ccc(F)cc2)CC1 [Radiprodil]
Observed Result: 722
